Tested on: CYP2B6
experiment: CYP2B6 activity in RLM, mixed probe method (bupropion)
condition-info: rat, rat liver microsomes, probe bupropion (8.0 μM)

{"molecule": "O=c1c(O)c(-c2ccc(O)c(O)c2)oc2cc(O)ccc12 [fisetin]", "IC50 at 30 min": "29.4 µM"}
{"molecule": "O=c1cc(-c2ccc(O)c(O)c2)oc2cc(O)cc(O)c12 [luteolin]", "IC50 at 30 min": "18.9 µM"}

====

subject-of-test: CYP1A2 (Rattus norvegicus, UniProt P04799)
Sequence (P04799 whole entry): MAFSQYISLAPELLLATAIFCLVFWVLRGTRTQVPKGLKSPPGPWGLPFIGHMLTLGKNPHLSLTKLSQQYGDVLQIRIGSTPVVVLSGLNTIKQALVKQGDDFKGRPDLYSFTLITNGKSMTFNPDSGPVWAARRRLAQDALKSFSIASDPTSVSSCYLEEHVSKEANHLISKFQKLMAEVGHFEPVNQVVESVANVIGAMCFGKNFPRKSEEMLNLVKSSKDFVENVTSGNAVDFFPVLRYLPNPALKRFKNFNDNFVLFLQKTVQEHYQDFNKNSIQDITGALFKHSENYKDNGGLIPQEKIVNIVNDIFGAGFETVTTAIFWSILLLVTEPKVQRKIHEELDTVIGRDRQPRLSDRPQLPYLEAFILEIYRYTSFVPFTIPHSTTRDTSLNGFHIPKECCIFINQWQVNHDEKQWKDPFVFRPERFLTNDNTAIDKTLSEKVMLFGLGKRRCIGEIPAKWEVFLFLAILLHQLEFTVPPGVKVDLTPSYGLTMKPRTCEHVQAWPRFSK
experiment: CYP1A2 activity in RLM, mixed probe method (melatonin)
condition-info: rat, microsomes
recorded-endpoint: inhibition at 30 min, 100 µM (%)

{"smiles-input": "O=c1c(O)c(-c2cc(O)c(O)c(O)c2)oc2cc(O)cc(O)c12", "value-measured": 98.1}
{"smiles-input": "O=c1c(O)c(-c2ccc(O)c(O)c2)oc2cc(O)ccc12", "value-measured": 93.6}

====

System: lenvatinib metabolism (M1 formation) in RLM
experiment: Inhibition of lenvatinib metabolism (M1 formation) by flavonoids in rat liver microsomes
condition-info: rat
recorded-endpoint: IC50 at 30 min

{"compound": "O=c1c(O)c(-c2cc(O)c(O)c(O)c2)oc2cc(O)cc(O)c12 [myricetin]", "value-measured": "11.2 µM"}

====

# maps each entry to its IC50 at 30 min
Test system: CYP3A4
experiment: in vitro
condition-info: rat, microsomes
recorded-endpoint: IC50 at 30 min (µM)

{"smiles-input": "O=c1c(O)c(-c2ccc(O)c(O)c2)oc2cc(O)ccc12", "recorded-endpoint": "IC50 at 30 min", "readout-unit": "µM", "value-measured": 74.2}
{"smiles-input": "O=c1cc(-c2ccc(O)c(O)c2)oc2cc(O)cc(O)c12", "recorded-endpoint": "IC50 at 30 min", "readout-unit": "µM", "value-measured": 49.4}
{"smiles-input": "O=c1c(O)c(-c2cc(O)c(O)c(O)c2)oc2cc(O)cc(O)c12", "recorded-endpoint": "IC50 at 30 min", "readout-unit": "µM", "value-measured": 5.11}

====

Tested on: lenvatinib metabolism (M1 formation) in HLM
experiment: Inhibition of lenvatinib metabolism (M1 formation) by flavonoids in human liver microsomes
Assay type: in vitro ADME
condition-info: human, human liver microsomes, probe lenvatinib 4.23, 8.45, 16.90, 33.80 μM; Lineweaver-Burk secondary plot, n = 3

{"smiles-input": "O=c1cc(-c2ccc(O)c(O)c2)oc2cc(O)cc(O)c12", "Ki at 30 min / µM": 14.3}

====

experiment: Pharmacokinetics of lenvatinib in SD rats with or without luteolin or myricetin
condition-info: Sprague-Dawley, rat, in vivo, po, 1.2 mg/kg

{"smiles-input": "COc1cc2nccc(Oc3ccc(NC(=O)NC4CC4)c(Cl)c3)c2cc1C(N)=O", "readout-unit": "ng/mL", "Cmax": 147}

====

System: CYP2B6
experiment: CYP2B6 activity in RLM, mixed probe method (bupropion)
condition-info: read-out: IC50 for CYP2B6 in RLM; probe 8.0 μM bupropion, mixed probes, 0.3 mg/mL RLM
recorded-endpoint: IC50 (µM)

{"smiles-input": "O=c1c(O)c(-c2cc(O)c(O)c(O)c2)oc2cc(O)cc(O)c12", "recorded-endpoint": "IC50", "readout-unit": "µM", "value-measured": 25.6}

====

experiment: Pharmacokinetics of lenvatinib in SD rats with or without luteolin or myricetin
condition-info: Sprague-Dawley, rat, in vivo, po, 1.2 mg/kg

{"smiles-input": "COc1cc2nccc(Oc3ccc(NC(=O)NC4CC4)c(Cl)c3)c2cc1C(N)=O", "Tmax, h": 5.6}

====

experiment: Metabolic stability of lenvatinib in RLM with or without flavonoids
Format: in vitro ADME
condition-info: rat, rat liver microsomes; 1.0 μM lenvatinib, 0.3 mg/mL RLM, with or without flavonoid; n = 3
Method: Using the UPLC-MS/MS technique, metabolic stability tests were carried out to monitor any discernible drop in lenvatinib concentration in the RLM matrix ([Shang et al., 2021]). 1.0 μM lenvatinib was incubated with 0.3 mg/mL RLM and 1 mM NADPH in 0.1 M Tris-HCl buffer until a final volume of 0.2 mL was reached. […] The relative content of lenvatinib in the RLM matrix was calculated after stopping the metabolic reaction at different time periods. […]

{"compound": "COc1cc2nccc(Oc3ccc(NC(=O)NC4CC4)c(Cl)c3)c2cc1C(N)=O [lenvatinib, Lenvatinib]", "readout-unit": "µL/min/mg", "microsomal CLint at 1 μM": 2.3}

====

experiment: Pharmacokinetics of lenvatinib in SD rats with or without luteolin or myricetin
condition-info: Sprague-Dawley, rat, in vivo, po, 1.2 mg/kg
recorded-endpoint: AUC(0-t) (ng·h/mL)

{"smiles-input": "COc1cc2nccc(Oc3ccc(NC(=O)NC4CC4)c(Cl)c3)c2cc1C(N)=O", "value-measured": 1260}

====

experiment: Pharmacokinetics of lenvatinib in SD rats with or without luteolin or myricetin
condition-info: Sprague-Dawley, rat, in vivo, po, 1.2 mg/kg

{"smiles-input": "COc1cc2nccc(Oc3ccc(NC(=O)NC4CC4)c(Cl)c3)c2cc1C(N)=O", "AUC(0-inf)": "1410 ng·h/mL"}

====

Tested on: lenvatinib metabolism (M1 formation) in HLM
experiment: Inhibition of lenvatinib metabolism (M1 formation) by flavonoids in human liver microsomes
Format: in vitro ADME
condition-info: human; 0.3 mg/mL HLM, lenvatinib 16.9 μM, mean ± S.D.; read-out: IC50 to inhibit the metabolism of lenvatinib in HLM

{"smiles-input": "O=c1c(O)c(-c2cc(O)c(O)c(O)c2)oc2cc(O)cc(O)c12", "IC50 at 30 min, µM": 12.3}
